Tested on: rabbit red blood cells
Type: cell-based
measurement.setup: red cells of rabbit, 1 h
Non-standard residues stand in square brackets, D forms with d. Residues, ends and D or L forms follow the SMILES beside them. Phe(4-F) = N[C@@H](Cc1ccc(F)cc1)C(=O)O
property.measured: MHC (minimum hemolytic concentration, lowest concentration causing 10% hemolysis)

For the molecule CC(=O)N[C@@H](CCCNC(=N)N)C(=O)N[C@@H](CCCCN)C(=O)N[C@@H](CC(C)C)C(=O)N[C@@H](CC(C)C)C(=O)N[C@@H](Cc1ccc(F)cc1)C(=O)N[C@@H](CCCCN)C(=O)N[C@@H](CC(C)C)C(=O)N[C@@H](CCCCN)C(=O)N[C@@H](Cc1ccc(F)cc1)C(=O)N[C@@H](CCCCN)C(=O)N[C@@H](CCCNC(=N)N)C(N)=O [LV-35] (Ac-RKLL[Phe(4-F)]KLK[Phe(4-F)]KR-NH2) , report MHC (minimum hemolytic concentration, lowest concentration causing 10% hemolysis).
>1000 µg/mL

====

Tested on: Candida utilis ATCC 9950
Type: cell-based
Non-standard residues stand in square brackets, D forms with d. Residues, ends and D or L forms follow the SMILES beside them. dPhe(4-Cl) = N[C@H](Cc1ccc(Cl)cc1)C(=O)O; d2Nal = N[C@H](Cc1ccc2ccccc2c1)C(=O)O
property.measured: MIC Candida utilis ATCC 9950 (µg/mL)
State the answer as a number, implicitly in µg/mL.

Report MIC Candida utilis ATCC 9950 for CC(=O)N[C@H](CCCNC(=N)N)C(=O)N[C@H](CCCCN)C(=O)N[C@H](CC(C)C)C(=O)N[C@H](CC(C)C)C(=O)N[C@H](Cc1ccc2ccccc2c1)C(=O)N[C@H](CCCCN)C(=O)N[C@H](CC(C)C)C(=O)N[C@H](CCCCN)C(=O)N[C@H](Cc1ccc2ccccc2c1)C(=O)N[C@H](CCCCN)C(=O)N[C@H](CCCNC(=N)N)C(N)=O [LV-18] (Ac-[dR][dK][dL][dL][d2Nal][dK][dL][dK][d2Nal][dK][dR]-NH2)
8

State, in one line, measured MIC Candida utilis ATCC 9950 of CC(=O)N[C@H](CCCNC(=N)N)C(=O)N[C@H](CCCCN)C(=O)N[C@H](CC(C)C)C(=O)N[C@H](CC(C)C)C(=O)N[C@H](Cc1ccc(Cl)cc1)C(=O)N[C@H](CCCCN)C(=O)N[C@H](CC(C)C)C(=O)N[C@H](CCCCN)C(=O)N[C@H](Cc1ccc(Cl)cc1)C(=O)N[C@H](CCCCN)C(=O)N[C@H](CCCNC(=N)N)C(N)=O [LV-7] (Ac-[dR][dK][dL][dL][dPhe(4-Cl)][dK][dL][dK][dPhe(4-Cl)][dK][dR]-NH2)
8

Consider the compound CC(=O)N[C@H](CCCNC(=N)N)C(=O)N[C@H](CCCCN)C(=O)N[C@H](C)C(=O)N[C@H](C)C(=O)N[C@H](Cc1ccc2ccccc2c1)C(=O)N[C@H](CCCNC(=N)N)C(=O)N[C@H](C)C(=O)N[C@H](CCCCN)C(=O)N[C@H](Cc1ccc2ccccc2c1)C(=O)N[C@H](CCCNC(=N)N)C(=O)N[C@H](CCCCN)C(N)=O [LV-15] (Ac-[dR][dK][dA][dA][d2Nal][dR][dA][dK][d2Nal][dR][dK]-NH2) . State its measured MIC Candida utilis ATCC 9950.
8

====

Tested on: Bacillus subtilis ATCC 6633
Type: cell-based
Non-standard residues stand in square brackets, D forms with d. Residues, ends and D or L forms follow the SMILES beside them. d2Nal = N[C@H](Cc1ccc2ccccc2c1)C(=O)O; dNle = CCCC[C@@H](N)C(=O)O
Please respond with reported MIC Bacillus subtilis ATCC 6633 for every item in the list.
Note: unit µg/mL is implicit; provide only the numeric part.

Report value only: MIC Bacillus subtilis ATCC 6633, Bacillus subtilis ATCC 6633, CCCC[C@@H](NC(=O)[C@@H](CCCCN)NC(=O)[C@@H](CCCNC(=N)N)NC(C)=O)C(=O)N[C@H](CCCC)C(=O)N[C@H](Cc1ccc2ccccc2c1)C(=O)N[C@H](CCCNC(=N)N)C(=O)N[C@H](CCCC)C(=O)N[C@H](CCCCN)C(=O)N[C@H](Cc1ccc2ccccc2c1)C(=O)N[C@H](CCCNC(=N)N)C(=O)N[C@H](CCCCN)C(N)=O [LV-12] (Ac-[dR][dK][dNle][dNle][d2Nal][dR][dNle][dK][d2Nal][dR][dK]-NH2)
8

# return MIC Bacillus subtilis ATCC 6633 for CC(=O)N[C@H](CCCNC(=N)N)C(=O)N[C@H](CCCNC(=N)N)C(=O)N[C@H](CC(C)C)C(=O)N[C@H](CC(C)C)C(=O)N[C@H](Cc1ccc2ccccc2c1)C(=O)N[C@H](CCCNC(=N)N)C(=O)N[C@H](CC(C)C)C(=O)N[C@H](CCCNC(=N)N)C(=O)N[C@H](Cc1ccc2ccccc2c1)C(=O)N[C@H](CCCNC(=N)N)C(=O)N[C@H](CCCNC(=N)N)C(N)=O [LV-1] (Ac-[dR][dR][dL][dL][d2Nal][dR][dL][dR][d2Nal][dR][dR]-NH2) , test system: Bacillus subtilis ATCC 6633
4

Provide MIC Bacillus subtilis ATCC 6633, recorded with Bacillus subtilis ATCC 6633, of CC(=O)N[C@H](CCCNC(=N)N)C(=O)N[C@H](CCCCN)C(=O)N[C@H](CC(C)C)C(=O)N[C@H](CC(C)C)C(=O)N[C@H](Cc1ccc2ccccc2c1)C(=O)N[C@H](CCCNC(=N)N)C(=O)N[C@H](CC(C)C)C(=O)N[C@H](CCCCN)C(=O)N[C@H](Cc1ccccc1)C(=O)N[C@H](CCCNC(=N)N)C(=O)N[C@H](CCCCN)C(N)=O [LV-4] (Ac-[dR][dK][dL][dL][d2Nal][dR][dL][dK][dF][dR][dK]-NH2)
4

====

Kindly supply the reported MIC Escherichia coli ATCC 25922 values for the records listed here.
Test system: Escherichia coli ATCC 25922
Format: cell-based
Non-standard residues stand in square brackets, D forms with d. Residues, ends and D or L forms follow the SMILES beside them. dPhe(4-F) = N[C@H](Cc1ccc(F)cc1)C(=O)O; d2Nal = N[C@H](Cc1ccc2ccccc2c1)C(=O)O; dNle = CCCC[C@@H](N)C(=O)O
Please give a number only; it is taken to be in µg/mL.

For CCCC[C@@H](NC(=O)[C@@H](CCCCN)NC(=O)[C@@H](CCCNC(=N)N)NC(C)=O)C(=O)N[C@H](CCCC)C(=O)N[C@H](Cc1ccc2ccccc2c1)C(=O)N[C@H](CCCNC(=N)N)C(=O)N[C@H](CCCC)C(=O)N[C@H](CCCCN)C(=O)N[C@H](Cc1ccc2ccccc2c1)C(=O)N[C@H](CCCNC(=N)N)C(=O)N[C@H](CCCCN)C(N)=O [LV-12] (Ac-[dR][dK][dNle][dNle][d2Nal][dR][dNle][dK][d2Nal][dR][dK]-NH2) , write its MIC Escherichia coli ATCC 25922.
1

For the compound CC(=O)N[C@H](CCCNC(=N)N)C(=O)N[C@H](CCCCN)C(=O)N[C@H](CC(C)C)C(=O)N[C@H](CC(C)C)C(=O)N[C@H](Cc1ccc2ccccc2c1)C(=O)N[C@H](CCCNC(=N)N)C(=O)N[C@H](CC(C)C)C(=O)N[C@H](CCCCN)C(=O)N[C@H](Cc1ccccc1)C(=O)N[C@H](CCCNC(=N)N)C(=O)N[C@H](CCCCN)C(N)=O [LV-4] (Ac-[dR][dK][dL][dL][d2Nal][dR][dL][dK][dF][dR][dK]-NH2) , give its reported MIC Escherichia coli ATCC 25922.
2

Retrieve MIC Escherichia coli ATCC 25922 measured for CC(=O)N[C@H](CCCNC(=N)N)C(=O)N[C@H](CCCCN)C(=O)N[C@H](CC(C)C)C(=O)N[C@H](CC(C)C)C(=O)N[C@H](Cc1ccc(F)cc1)C(=O)N[C@H](CCCCN)C(=O)N[C@H](CC(C)C)C(=O)N[C@H](CCCCN)C(=O)N[C@H](Cc1ccc(F)cc1)C(=O)N[C@H](CCCCN)C(=O)N[C@H](CCCNC(=N)N)C(N)=O [LV-5] (Ac-[dR][dK][dL][dL][dPhe(4-F)][dK][dL][dK][dPhe(4-F)][dK][dR]-NH2) and print it.
4

Respond only with MIC Escherichia coli ATCC 25922 recorded for CC(=O)N[C@H](CCCNC(=N)N)C(=O)N[C@H](CCCNC(=N)N)C(=O)N[C@H](CC(C)C)C(=O)N[C@H](CC(C)C)C(=O)N[C@H](Cc1ccc2ccccc2c1)C(=O)N[C@H](CCCNC(=N)N)C(=O)N[C@H](CC(C)C)C(=O)N[C@H](CCCCN)C(=O)N[C@H](Cc1ccc2ccccc2c1)C(=O)N[C@H](CCCNC(=N)N)C(=O)N[C@H](CCCCN)C(N)=O [LV-21] (Ac-[dR][dR][dL][dL][d2Nal][dR][dL][dK][d2Nal][dR][dK]-NH2)
2

Provide measured MIC Escherichia coli ATCC 25922 value, entry: CC(=O)N[C@H](CCCNC(=N)N)C(=O)N[C@H](CCCCN)C(=O)N[C@H](CC(C)C)C(=O)N[C@H](CC(C)C)C(=O)N[C@H](Cc1ccc2ccccc2c1)C(=O)N[C@H](CCCCN)C(=O)N[C@H](CC(C)C)C(=O)N[C@H](CCCCN)C(=O)N[C@H](Cc1ccc2ccccc2c1)C(=O)N[C@H](CCCCN)C(=O)N[C@H](CCCNC(=N)N)C(N)=O [LV-18] (Ac-[dR][dK][dL][dL][d2Nal][dK][dL][dK][d2Nal][dK][dR]-NH2)
1
